System: antibodies raised to this conjugate (antigen 12)
Test: Hapten inhibition of precipitation of anti-12 sera with (β-D-gal-O(CH2)8 CONH)23 -HSA
Assay type: binding, rabbit
Conditions: (β-D-gal-O(CH2)8 CONH)23 -HSA as the precipitating antigen; read-out: concentration giving 50% inhibition of precipitation
METRIC NAME: pIC50
API: returns pIC50 as number; meaning -log10 of concentration in mol/L.

MOLECULE: OC[C@H]1OC(O)[C@H](O)[C@@H](O)[C@H]1O (stereo partly shown)
pIC50: 2.18
//
MOLECULE: OC[C@H]1O[C@@H](O[C@H]2[C@H](O)[C@@H](O)C(O)O[C@@H]2CO)[C@H](O)[C@@H](O)[C@H]1O (stereo partly shown)
pIC50: 1.15
//
MOLECULE: CO[C@H]1O[C@H](CO)[C@H](O)[C@H](O)[C@H]1O [methyl α-D-galactopyranoside]
pIC50: 1.48

From here, focus on the item given below.
Value lookup for pIC50; key = CO[C@@H]1O[C@H](CO)[C@H](O)[C@H](O)[C@H]1O [methyl β-D-galactopyranoside] 3.08
